Data origin, for the record: paper PMC9232501

- assay-comment: Plasma pharmacokinetics of CX-5461 (HPLC-MS/MS, non-compartmental)
- Assay type: in vivo, human
- run-conditions: human, plasma, intravenous, 150 mg/m2, Dose level 150 (mg/m2); one patient per datapoint; read-out: Day 8 or 15 AUC
observable: AUC (ng·h/mL)
Give bare numbers, in ng·h/mL.

Reported AUC for Cc1cnc(CNC(=O)c2c(=O)c3ccc(N4CCCN(C)CC4)nc3n3c2sc2ccccc23)cn1 was 19600

---

- assay-comment: Plasma pharmacokinetics of CX-5461 (HPLC-MS/MS, non-compartmental)
- Type: in vivo, human
- run-conditions: human, plasma, intravenous, 250 mg/m2, 250 mg/m2; Time 0; individual patients; read-out: Day 1 CX-5461 plasma concentration
- Description: PK was assessed on all patients in the escalation phase. Venous blood samples were collected on treatment days 1, 8, and 15 (where applicable), and plasma CX-5461 was analyzed with HPLC-MS/MS (schedule details in Supplementary Table 3). PK parameters were calculated with non-compartmental methods. […] The protocol was amended to allow submission of a ctDNA sample and in a further amendment, a mandatory skin biopsy (pre-treatment and cycle 1 day 15) to study phototoxic effects. […]
observable: concentration at 0 h (ng/mL)
Numbers only, in ng/mL.

Memo: Cc1cnc(CNC(=O)c2c(=O)c3ccc(N4CCCN(C)CC4)nc3n3c2sc2ccccc23)cn1 [CX-5461] , reported concentration at 0 h: 867

---

- assay-comment: Plasma pharmacokinetics of CX-5461 (HPLC-MS/MS, non-compartmental)
- Assay type: in vivo, human
- run-conditions: human, plasma, intravenous, 325 mg/m2, Dose level 325 (mg/m2); one patient per datapoint; read-out: Day 8 or 15 AUC
observable: AUC (ng·h/mL)
Answers are plain numbers, in ng·h/mL.

The compound identified as Cc1cnc(CNC(=O)c2c(=O)c3ccc(N4CCCN(C)CC4)nc3n3c2sc2ccccc23)cn1 registered its AUC at 24600

---

- assay-comment: Plasma pharmacokinetics of CX-5461 (HPLC-MS/MS, non-compartmental)
- Type: in vivo, human
- run-conditions: human, plasma, intravenous, 250 mg/m2, 250 mg/m2; Time 2; individual patients; read-out: Day 1 CX-5461 plasma concentration
observable: concentration at 2 h
Just so you know, I need the unit written after the number.

The reported value for Cc1cnc(CNC(=O)c2c(=O)c3ccc(N4CCCN(C)CC4)nc3n3c2sc2ccccc23)cn1 in terms of concentration at 2 h is 369 ng/mL

---

- assay-comment: Plasma pharmacokinetics of CX-5461 (HPLC-MS/MS, non-compartmental)
- Format: in vivo, human
- run-conditions: human, plasma, intravenous, 50 mg/m2, 50 mg/m2; Time 1; individual patients; read-out: Day 1 CX-5461 plasma concentration
observable: concentration at 1 h (ng/mL)
Answers are plain numbers, in ng/mL.

The recorded concentration at 1 h for Cc1cnc(CNC(=O)c2c(=O)c3ccc(N4CCCN(C)CC4)nc3n3c2sc2ccccc23)cn1 is 104

---

- assay-comment: Plasma pharmacokinetics of CX-5461 (HPLC-MS/MS, non-compartmental)
- Format: in vivo, human
- run-conditions: human, plasma, intravenous, 100 mg/m2, 100 mg/m2; Time 1; individual patients; read-out: Day 1 CX-5461 plasma concentration
observable: concentration at 1 h
Please state the number and follow it with the unit.

The recorded concentration at 1 h for entry Cc1cnc(CNC(=O)c2c(=O)c3ccc(N4CCCN(C)CC4)nc3n3c2sc2ccccc23)cn1 equals 115 ng/mL
